experimental_target: CDK9/CyclinT1 (Homo sapiens, UniProt P50750)
Sequence (P50750 whole entry, species assumed): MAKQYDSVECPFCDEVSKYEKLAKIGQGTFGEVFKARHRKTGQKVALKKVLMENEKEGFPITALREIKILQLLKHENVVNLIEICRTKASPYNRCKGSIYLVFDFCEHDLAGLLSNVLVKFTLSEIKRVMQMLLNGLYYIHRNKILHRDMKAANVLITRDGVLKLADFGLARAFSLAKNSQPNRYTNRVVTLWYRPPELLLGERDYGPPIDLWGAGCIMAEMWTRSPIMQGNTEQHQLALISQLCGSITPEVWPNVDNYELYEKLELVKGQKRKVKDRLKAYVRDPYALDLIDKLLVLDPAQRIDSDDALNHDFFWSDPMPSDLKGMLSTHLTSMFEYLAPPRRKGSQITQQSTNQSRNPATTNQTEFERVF
Sequence (O60563 whole entry partner, species assumed): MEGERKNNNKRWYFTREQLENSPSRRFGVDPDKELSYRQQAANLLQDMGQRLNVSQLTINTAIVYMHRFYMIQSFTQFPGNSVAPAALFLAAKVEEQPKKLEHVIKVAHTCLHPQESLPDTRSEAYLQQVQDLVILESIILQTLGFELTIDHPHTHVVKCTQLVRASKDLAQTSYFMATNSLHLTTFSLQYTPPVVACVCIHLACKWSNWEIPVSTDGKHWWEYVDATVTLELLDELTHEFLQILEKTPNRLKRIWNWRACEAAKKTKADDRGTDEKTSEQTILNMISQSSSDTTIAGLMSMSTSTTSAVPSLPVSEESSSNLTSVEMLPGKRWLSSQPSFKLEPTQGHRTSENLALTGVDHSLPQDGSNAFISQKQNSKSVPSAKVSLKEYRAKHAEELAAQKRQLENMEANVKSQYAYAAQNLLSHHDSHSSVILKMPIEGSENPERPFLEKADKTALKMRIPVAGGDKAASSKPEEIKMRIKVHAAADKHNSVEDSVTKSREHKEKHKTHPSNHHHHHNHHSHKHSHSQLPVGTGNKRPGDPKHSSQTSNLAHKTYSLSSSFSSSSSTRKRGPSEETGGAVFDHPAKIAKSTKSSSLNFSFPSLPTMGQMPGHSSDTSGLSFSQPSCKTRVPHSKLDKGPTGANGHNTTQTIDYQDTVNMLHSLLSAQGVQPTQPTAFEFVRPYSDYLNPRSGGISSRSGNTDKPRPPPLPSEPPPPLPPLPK
experiment_notes: ADP Glo kinase assay, CDK9/CyclinT1
measurement_setup: CDK9/CyclinT1; Km ATP; read-out: Enzymatic inhibition, Ki, CDK9 T1
property_label: Ki (nM)

Example results:
Quote Ki reported for "Cc1cnc(Nc2ccc(N3CCN(C)CC3)nc2)nc1-c1cnc2ccccn12" please. 136

Please give measured Ki of the following entry: CN1CCN(c2ccc(Nc3nccc(-c4cnc5ccc(-c6ccccc6)cn45)n3)nc2)CC1 [Comparator compound A, reference compound] 83

I: c1ccc(-c2ccc3ncc(-c4ccnc(Nc5ccc(NC6CCOCC6)nc5)n4)n3c2)cc1
II: c1ccc(-c2ccc3ncc(-c4ccnc(Nc5ccc(N6CCC6)nc5)n4)n3c2)cc1
III: CN(C)c1ccc(Nc2nccc(-c3cnc4ccc(Br)cn34)n2)cn1
Please list the entries, largest Ki first. # format: label list in the order the request specifies I, III, II

Where do these numbers come from? They come from patent US20240158391A1.
